Test system: HCC4018
procedure details: MTS viability assay
Type: cell-based, human
condition label: Patient B
Known Selectivity (HBEC-34KT vs HCC4018) of a selection of molecules
Reply briefly: the number, and no unit.

Look over these answered cases.
molecule="C/C=C1\\NC(=O)[C@H]2CSSCC/C=C/[C@H](CC(=O)N[C@H](C(C)C)C(=O)N2)OC(=O)[C@H](C(C)C)NC1=O [Depsi., Depsipeptide, reference compound]" readout_value=0.31
molecule="O=C(NO)c1ccc(S(=O)(=O)N2CCN(c3nc4ccccc4s3)CC2)cc1 [Compound 9d]" readout_value=2.06

Let us move to another entry and its Selectivity (HBEC-34KT vs HCC4018).
IN: May I ask what Selectivity (HBEC-34KT vs HCC4018) has been recorded for CCC(=O)CCCCC[C@@H]1NC(=O)[C@H]2CCCCN2C(=O)[C@H]([C@@H](C)CC)NC(=O)[C@H](Cc2cn(OC)c3ccccc23)NC1=O [Apicidin, reference compound] ?
OUT: 26.3
